assay.system: Beta-glucuronidase (Homo sapiens, UniProt P08236)
Sequence (P08236 whole entry): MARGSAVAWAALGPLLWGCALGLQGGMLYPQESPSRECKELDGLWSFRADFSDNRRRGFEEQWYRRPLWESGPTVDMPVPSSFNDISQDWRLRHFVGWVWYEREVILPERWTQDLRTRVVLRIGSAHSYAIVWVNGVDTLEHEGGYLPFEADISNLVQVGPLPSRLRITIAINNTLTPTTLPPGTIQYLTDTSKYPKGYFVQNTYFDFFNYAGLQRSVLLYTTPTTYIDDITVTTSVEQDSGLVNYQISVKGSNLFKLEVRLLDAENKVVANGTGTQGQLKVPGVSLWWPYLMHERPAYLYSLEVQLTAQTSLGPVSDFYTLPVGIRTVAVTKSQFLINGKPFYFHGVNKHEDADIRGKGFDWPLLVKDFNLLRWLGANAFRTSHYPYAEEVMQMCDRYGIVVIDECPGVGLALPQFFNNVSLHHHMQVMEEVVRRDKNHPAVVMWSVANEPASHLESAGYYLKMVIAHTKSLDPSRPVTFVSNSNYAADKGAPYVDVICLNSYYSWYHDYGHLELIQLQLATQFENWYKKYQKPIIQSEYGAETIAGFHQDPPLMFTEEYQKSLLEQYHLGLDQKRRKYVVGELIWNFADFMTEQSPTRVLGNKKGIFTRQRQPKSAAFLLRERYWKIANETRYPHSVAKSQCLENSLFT
assay.notes: Inhibition of recombinant human GUSbeta using 4-MUG as substrate pre-incubated for 10 mins followed by substrate addition and measured after 60 mins by fluorescence based assay
parameter: pIC50
Remember, pIC50 is on a log scale: it is -log10 of the molar concentration.

Consider the compound CO[C@H]1[C@H](O)[C@@H](O)c2nc(CCc3cccc(Oc4ccccc4)c3)cn2[C@@H]1C(=O)O . State its measured pIC50.
6.08

Consider the compound O=C(O)[C@@H]1[C@@H](O)[C@H](O)[C@@H](O)c2nc(CCc3cccc(Oc4ccccc4)c3)cn21 . State its measured pIC50.
8.10

---

assay.notes: Drug concentration in C57BL/6J mouse plasma at 3 mg/kg, sc measured after 1 hrs by LC-MS/MS analysis
Assay type: ADME, organism-based
parameter: concentration at 1 h

Consider the compound CO[C@H]1[C@H](O)[C@@H](O)c2nc(CCc3cccc(Oc4ccccc4)c3)cn2[C@@H]1C(=O)O . State its measured concentration at 1 h.
1.24 µg/mL

---

assay.notes: Volume of distribution at steady state in C57BL/6J mouse at 0.5 mg/kg, iv measured after 0.083 to 24 hrs by LC-MS/MS analysis
Format: ADME, organism-based
settings: in vivo, time 0.083-24 hrs, read-out: Vdss
Entries and their Vd
Numbers only; they are read as L/kg.

molecule=CO[C@H]1[C@H](O)[C@@H](O)c2nc(CCc3cccc(Oc4ccccc4)c3)cn2[C@@H]1C(=O)O result=0.666

Consider the compound O=C(O)[C@@H]1[C@@H](O)[C@H](O)[C@@H](O)c2nc(CCc3cccc(Oc4ccccc4)c3)cn21 . State its measured Vd.
0.439

---

assay.notes: Drug concentration in C57BL/6J mouse plasma at 30 mg/kg, sc measured after 1 hrs by LC-MS/MS analysis
Format: ADME, organism-based
parameter: concentration at 1 h (ng/mL)
Numbers only; they are read as ng/mL.

Consider the molecule CO[C@H]1[C@H](O)[C@@H](O)c2nc(CCc3cccc(Oc4ccccc4)c3)cn2[C@@H]1C(=O)O . State its measured concentration at 1 h.
9820

---

assay.notes: Drug concentration in C57BL/6J mouse plasma at 3 mg/kg, sc measured after 4 hrs by LC-MS/MS analysis
Format: ADME, organism-based
parameter: concentration at 4 h

Consider the molecule CO[C@H]1[C@H](O)[C@@H](O)c2nc(CCc3cccc(Oc4ccccc4)c3)cn2[C@@H]1C(=O)O . State its measured concentration at 4 h.
191 ng/mL

---

assay.system: UniProt:Q9Y251
Sequence (Q9Y251 36-109 limits assumed): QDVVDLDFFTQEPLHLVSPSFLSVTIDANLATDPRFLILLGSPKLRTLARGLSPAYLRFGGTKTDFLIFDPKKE
Sequence (Q9Y251 158-543 limits assumed): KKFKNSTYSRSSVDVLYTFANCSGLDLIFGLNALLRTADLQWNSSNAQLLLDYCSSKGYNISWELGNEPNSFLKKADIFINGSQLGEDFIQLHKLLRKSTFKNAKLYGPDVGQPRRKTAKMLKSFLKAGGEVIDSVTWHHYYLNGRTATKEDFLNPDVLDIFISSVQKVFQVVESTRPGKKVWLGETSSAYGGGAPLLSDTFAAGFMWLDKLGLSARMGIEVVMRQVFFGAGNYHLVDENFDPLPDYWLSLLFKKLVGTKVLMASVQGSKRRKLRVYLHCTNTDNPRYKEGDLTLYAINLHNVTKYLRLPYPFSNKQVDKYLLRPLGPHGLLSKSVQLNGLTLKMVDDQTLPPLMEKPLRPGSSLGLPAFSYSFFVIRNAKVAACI
assay.notes: Inhibition of recombinant human HPSE1 using biotinylated heparan sulfate-Eu cryptate as substrate pre-incubated for 10 mins followed by substrate addition and measured after 60 mins by fluorescence based HTRF assay
parameter: pIC50
Remember, pIC50 is on a log scale: it is -log10 of the molar concentration.

molecule=COc1c(CCc2cn3c(n2)[C@H](O)[C@@H](O)[C@H](O)[C@H]3C(=O)O)cccc1Oc1ccccc1 result=5.80
molecule=CO[C@H]1[C@H](O)[C@@H](O)c2nc(CCc3cccc(Oc4ccccc4)c3)cn2[C@@H]1C(=O)O result=6.35

Moving on to another molecule below.
Given CC(C)c1ccc(Oc2cccc(CCc3cn4c(n3)[C@H](O)[C@@H](O)[C@H](O)[C@H]4C(=O)O)c2)cc1 , report its pIC50 on UniProt:Q9Y251.
5.86
